# Test system: Plasmodium falciparum
# experiment: In vitro antimalarial activity against Thai strain of Plasmodium falciparum
# Assay type: functional, organism-based
reported.metric: log10(IC50) (log10 of the value in nM)

{"columns": ["compound", "log10(IC50)"],
 "data": [
  ["COc1ccc2nc(NCCCNCCCNc3nc4ccc(OC)cc4n4cccc34)c3cccn3c2c1", 2.15],
  ["CCN(CC)CCCC(C)Nc1nc2ccc(Cl)cc2n2cccc12 (stereo unspecified)", 3.29],
  ["COc1ccc2nc(NCCCN3CCN(CCCNc4nc5ccc(OC)cc5n5cccc45)CC3)c3cccn3c2c1", 1.60],
  ["c1ccc2c(c1)nc(NCCCN1CCN(CCCNc3nc4ccccc4n4cccc34)CC1)c1cccn12", 1.90],
  ["CCN(CC)CCCC(C)Nc1nc2ccccc2n2cccc12 (stereo unspecified)", 3.47],
  ["Clc1ccc2nc(NCCCNCCCNc3nc4ccc(Cl)cc4n4cccc34)c3cccn3c2c1", 2.67]
]}

* * *

IC50 for assorted compounds
# Tested on: Plasmodium falciparum
# experiment: In vitro antimalarial activity against Thai strain of Plasmodium falciparum
# Type: functional, organism-based

{"columns": ["compound", "IC50"],
 "data": [
  ["COc1ccc2c(c1)nc(NCCCNCCCNc1nc3cc(OC)ccc3n3cccc13)c1cccn12", "40 nM"],
  ["CCN(CC)CCCC(C)Nc1nc2cc(OC)ccc2n2cccc12 (stereo not drawn)", "830 nM"],
  ["COc1ccc2nc(NCCCN(C)CCCNc3nc4ccc(OC)cc4n4cccc34)c3cccn3c2c1", "120 nM"]
]}

This collection of values is drawn from ChEMBL document CHEMBL1149143.
